assay system: human CD3 (human, UniProt P07766 23-207; P04234 22-171; P09693 23-182)
Sequence (P07766 23-207, chain 1 of 3): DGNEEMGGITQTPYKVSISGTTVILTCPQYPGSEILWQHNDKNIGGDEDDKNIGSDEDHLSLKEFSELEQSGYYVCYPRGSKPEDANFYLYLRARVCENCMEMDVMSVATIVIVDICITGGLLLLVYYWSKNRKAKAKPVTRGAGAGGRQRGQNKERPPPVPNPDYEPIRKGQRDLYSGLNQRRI
Sequence (P04234 22-171, chain 2 of 3): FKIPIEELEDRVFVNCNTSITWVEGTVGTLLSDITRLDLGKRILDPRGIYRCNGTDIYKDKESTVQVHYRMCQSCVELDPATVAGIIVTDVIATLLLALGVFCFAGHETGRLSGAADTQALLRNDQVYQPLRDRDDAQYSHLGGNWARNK
Sequence (P09693 23-182, chain 3 of 3): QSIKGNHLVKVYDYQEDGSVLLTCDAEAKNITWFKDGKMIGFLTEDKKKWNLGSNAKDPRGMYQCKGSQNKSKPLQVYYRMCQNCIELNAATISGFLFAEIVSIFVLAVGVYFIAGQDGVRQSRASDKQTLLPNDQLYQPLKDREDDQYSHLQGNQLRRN
method summary: cell-based or functional assay
# Lookup of reported CD4 EC50 (nM); CD69/CD25 on human T cells, plate-coated antibody keyed by entry
readout label: CD4 EC50 (nM); CD69/CD25 on human T cells, plate-coated antibody

mAb 121 (antibody, V domains shown) VH: EVQLVESGGGLVQPGRSLRLSCATSGFTFADYTMHWVRQAPGKGLEWVSGISWNSGSIDYADSVKGRFTISRDNAKKSLYLQMNSLRAEDTALYFCAKDSSGYGHYYFYYLDVWGKGTTVTVSS VL: EIVMTQSPGTLSVSPGKRATLSCRASQSVSSNLAWYQQKPGQGPRLLIYSTSTRATGIPARFSGSGSGTEFTLTISSLQSEDSAVYYCQHYNNWPHFGQGTRLEIK    12.3 nM
mAb 98 (antibody, V domains shown) VH: QVHLVESGGDVVQPGRSLRLSCSASGFTFSGYGMHWVRQAPGKGLEWVALIYFDGRNKYYADSVKGRFTISRDNSKNTLYLQMNSLRAEDTAVYYCARGGGYNWFDPWGQGTLVTVSS VL: DIQMTQSPSSLSASVGDRVTITCRASQSINNYLNWYQQKPGKAPKLLIYLASSLQSGVPSRFSGSGSGTDFTLTISSLQPEDLATYYCQLSYSSPFTFGPGTKVDVK    11.3 nM
mAb 160 (antibody, V domains shown) VH: EVQLVESGGGLVQPGRSLRLSCAVSGFTFNDYTMHWVRQVPGKGLEWVSGISWNSGSIGYADSVKGRFTISRDNAKNSLYLQMNSLRAEDTALYFCAKDSSGYGHYYYYYMDVWGRGTTVTVSS VL: EIVMTQSPATLSVSPGERATLSCRASQSVRKNLAWYQQKPGQAPRLLIYGASTRATGIPARFSGSGSGTEFTLTISSLQSEDFAVYYCQLYNNWPHFGQGTRLEIK    6.95 nM
